test system: Liver microsomes; experiment: Oxidative metabolic stability in human liver microsomes assessed as compound remaining at 1 uM after 30 mins in presence of 1 mM NADPH; type: ADME, Microsome; conditions: microsomes, 0.5 h, 1 µM
Measured metric: Stability (%)

O=C1c2[nH]ncc2C(C2CC2)N(S(=O)(=O)c2ccc(C(F)(F)F)nc2)C12CC2 (stereo in doubt; 16e) :: 83
O=C1c2[nH]ncc2C(C2CC2)N(S(=O)(=O)c2ccc(C(F)(F)F)cn2)C12CC2 (stereo in doubt; 16i) :: 82
O=S(=O)(c1ccc(C(F)(F)F)nc1)N1C(C2CC2)c2cn[nH]c2C(F)(F)C12CC2 (stereo in doubt; 17c) :: 72
O=S(=O)(c1ccc(C(F)(F)F)nc1)N1C(C2CC2)c2cn[nH]c2C(F)(F)C12CC2 (stereo in doubt; 17b) :: 85
O=C1c2[nH]ncc2C(C2CC2)N(S(=O)(=O)c2ccc(C(F)(F)F)cn2)C12CC2 (stereo in doubt; 16h) :: 80

(a) O=S(=O)(c1ccc(C(F)(F)F)nc1)N1C(C2CC2)c2cn[nH]c2C(F)(F)C12CC2 (racemic)
(b) CC(C)(C)C1C(=O)c2[nH]ncc2C(C2CC2)N1S(=O)(=O)c1ccc(C(F)(F)F)nc1 (stereo in doubt; 3u)
// max by Stability over [ a , b ] Field: selected label. Fill in the label of the entry you choose. a
